# Test system: A-427
# assayComment: relative viability (nuclei count vs DMSO), 5 days (fraction); higher = more cells survive
# experimentalContext: first compound 2 µM
relative viability overview
Quick one: just the number, no unit, thanks!

Worked cases, relative viability given:
| molecule | relative viability |
| --- | --- |
| CN1CCN(CCOc2cc(OC3CCOCC3)c3c(Nc4c(Cl)ccc5c4OCO5)ncnc3c2)CC1 [Saracatinib] + CS(=O)(=O)N1CCN(Cc2cc3nc(-c4cccc5[nH]ncc45)nc(N4CCOCC4)c3s2)CC1 [Pictilisib] (partner 1 µM) | 0.616 |
| CN1CCN(CCOc2cc(OC3CCOCC3)c3c(Nc4c(Cl)ccc5c4OCO5)ncnc3c2)CC1 [Saracatinib] + C[C@]1(O)C[C@@H](c2nc(-c3ccc4ccc(-c5ccccc5)nc4c3)c3c(N)nccn32)C1 [Linsitinib] (partner 1 µM) | 1.11 |
| Cc1csc(=NC2CCCCC2)n1/N=C/c1ccc(O)c(O)c1O [MIM1] + Cc1nc(Nc2ncc(C(=O)Nc3c(C)cccc3Cl)s2)cc(N2CCN(CCO)CC2)n1 [Dasatinib] (partner 0.075 µM) | 0.716 |
| CN1CCN(CCOc2cc(OC3CCOCC3)c3c(Nc4c(Cl)ccc5c4OCO5)ncnc3c2)CC1 [Saracatinib] + CC(=O)c1c(C)c2cnc(Nc3ccc(N4CCNCC4)cn3)nc2n(C2CCCC2)c1=O [Palbociclib] (partner 0.5 µM) | 0.506 |
| CN1CCN(CCOc2cc(OC3CCOCC3)c3c(Nc4c(Cl)ccc5c4OCO5)ncnc3c2)CC1 [Saracatinib] + COc1cccc2cc(-c3nc([C@H]4CC[C@H](C(=O)O)CC4)n4ncnc(N)c34)[nH]c12 [OSI-027] (partner 0.5 µM) | 0.493 |

With those in mind, consider the next molecule.
Measured relative viability, Cc1csc(=NC2CCCCC2)n1/N=C/c1ccc(O)c(O)c1O [MIM1] + COc1cccc2cc(-c3nc([C@H]4CC[C@H](C(=O)O)CC4)n4ncnc(N)c34)[nH]c12 [OSI-027] (partner 0.5 µM) : 0.48

* * *

# System: NCI-H1755
# assayComment: relative viability (nuclei count vs DMSO), 5 days (fraction); higher = more cells survive
# experimentalContext: first compound 0.06325 µM
measure: relative viability
Quick one: just the number, no unit, thanks!

| compound | systemUnderTest | observedMeasurement |
| --- | --- | --- |
| CCNC(=O)c1noc(-c2cc(C(C)C)c(O)cc2O)c1-c1ccc(CN2CCOCC2)cc1 [Luminespib] + Nc1ncn([C@H]2C[C@H](O)[C@@H](CO)O2)c(=O)n1 [Decitabine] (partner 2 µM) | NCI-H1755 | 0.719 |

Measured relative viability, CCNC(=O)c1noc(-c2cc(C(C)C)c(O)cc2O)c1-c1ccc(CN2CCOCC2)cc1 [Luminespib] + Cc1nc(Nc2ncc(C(=O)Nc3c(C)cccc3Cl)s2)cc(N2CCN(CCO)CC2)n1 [Dasatinib] (partner 0.075 µM) : 0.258

* * *

# Tested on: SW 900
# assayComment: relative viability (nuclei count vs DMSO), 5 days (fraction); higher = more cells survive
# experimentalContext: first compound 2.53 µM
Could you mark each record 1 if its relative viability falls strictly under 0.7, and -1 if it equals or exceeds it?

Here's what some known entries look like.
| molecule | assignedClass |
| --- | --- |
| Nc1cccc2c1CN(C1CCC(=O)NC1=O)C2=O (stereo not given) [Lenalidomide] + COc1cc2c(Oc3ccc(NC(=O)C4(C(=O)Nc5ccc(F)cc5)CC4)cc3F)ccnc2cc1OCCCN1CCOCC1 [Foretinib] (partner 0.25 µM) | -1 |
| Nc1cccc2c1CN(C1CCC(=O)NC1=O)C2=O (stereo not given) [Lenalidomide] + Cc1cc(Nc2cc(N3CCN(C)CC3)nc(Sc3ccc(NC(=O)C4CC4)cc3)n2)n[nH]1 [Tozasertib] (partner 0.1 µM) | 1 |
| Nc1cccc2c1CN(C1CCC(=O)NC1=O)C2=O (stereo not given) [Lenalidomide] + O=C(c1cc(Cc2n[nH]c(=O)c3ccccc23)ccc1F)N1CCN(C(=O)C2CC2)CC1 [Olaparib] (partner 8 µM) | -1 |

Okay, next one:
Consider the molecule Nc1cccc2c1CN(C1CCC(=O)NC1=O)C2=O (stereo not given) [Lenalidomide] + NC(=O)Nc1cc(-c2cccc(F)c2)sc1C(=O)N[C@H]1CCCNC1 [AZD7762] (partner 0.2 µM) . Is its relative viability strictly less than 0.7?
1

* * *

relative viability overview
# System: NCI-H1993
# assayComment: relative viability (nuclei count vs DMSO), 5 days (fraction); higher = more cells survive
# experimentalContext: first compound 0.2 µM
Quick one: just the number, no unit, thanks!

Worked cases, relative viability given:
| compound | measure | observedMeasurement |
| --- | --- | --- |
| CN1CCN(CCOc2cc(OC3CCOCC3)c3c(Nc4c(Cl)ccc5c4OCO5)ncnc3c2)CC1 [Saracatinib] + CS(=O)(=O)N1CCN(Cc2cc3nc(-c4cccc5[nH]ncc45)nc(N4CCOCC4)c3s2)CC1 [Pictilisib] (partner 1 µM) | relative viability | 0.969 |
| Cc1csc(=NC2CCCCC2)n1/N=C/c1ccc(O)c(O)c1O [MIM1] + Cc1cc(Nc2cc(N3CCN(C)CC3)nc(Sc3ccc(NC(=O)C4CC4)cc3)n2)n[nH]1 [Tozasertib] (partner 0.1 µM) | relative viability | 0.57 |
| CN1CCN(CCOc2cc(OC3CCOCC3)c3c(Nc4c(Cl)ccc5c4OCO5)ncnc3c2)CC1 [Saracatinib] + CC(C)C[C@H](NC(=O)[C@H](Cc1ccccc1)NC(=O)c1cnccn1)B(O)O [Bortezomib] (partner 0.002 µM) | relative viability | 0.559 |

With those in mind, consider the next compound.
// relative viability (NCI-H1993) for Cc1csc(=NC2CCCCC2)n1/N=C/c1ccc(O)c(O)c1O [MIM1] + CC1(C)CCC(c2ccc(Cl)cc2)=C(CN2CCN(c3ccc(C(=O)NS(=O)(=O)c4ccc(N[C@H](CCN5CCOCC5)CSc5ccccc5)c(S(=O)(=O)C(F)(F)F)c4)cc3)CC2)C1 [Navitoclax] (partner 0.5 µM) = 0.911

* * *

# System: NCI-H1395
# assayComment: relative viability (nuclei count vs DMSO), 5 days (fraction); higher = more cells survive
# experimentalContext: first compound 0.003162 µM
measure: relative viability
Quick one: just the number, no unit, thanks!

Worked cases, relative viability given:
| compound | measure | observedMeasurement |
| --- | --- | --- |
| Cc1cn(-c2cc(NC(=O)c3ccc(C)c(Nc4nccc(-c5cccnc5)n4)c3)cc(C(F)(F)F)c2)cn1 [Nilotinib] + C[C@]1(O)C[C@@H](c2nc(-c3ccc4ccc(-c5ccccc5)nc4c3)c3c(N)nccn32)C1 [Linsitinib] (partner 1 µM) | relative viability | 0.826 |
| Cc1cn(-c2cc(NC(=O)c3ccc(C)c(Nc4nccc(-c5cccnc5)n4)c3)cc(C(F)(F)F)c2)cn1 [Nilotinib] + CC1(C)CCC(c2ccc(Cl)cc2)=C(CN2CCN(c3ccc(C(=O)NS(=O)(=O)c4ccc(N[C@H](CCN5CCOCC5)CSc5ccccc5)c(S(=O)(=O)C(F)(F)F)c4)cc3)CC2)C1 [Navitoclax] (partner 0.5 µM) | relative viability | 0.815 |
| Cc1cn(-c2cc(NC(=O)c3ccc(C)c(Nc4nccc(-c5cccnc5)n4)c3)cc(C(F)(F)F)c2)cn1 [Nilotinib] + N=C(N)NC(=N)NCCc1ccccc1 [Phenformin] (partner 250 µM) | relative viability | 0.403 |
| Cc1cn(-c2cc(NC(=O)c3ccc(C)c(Nc4nccc(-c5cccnc5)n4)c3)cc(C(F)(F)F)c2)cn1 [Nilotinib] + CS(=O)(=O)CCNCc1ccc(-c2ccc3ncnc(Nc4ccc(OCc5cccc(F)c5)c(Cl)c4)c3c2)o1 [Lapatinib] (partner 2 µM) | relative viability | 0.575 |

Measured relative viability, Cc1cn(-c2cc(NC(=O)c3ccc(C)c(Nc4nccc(-c5cccnc5)n4)c3)cc(C(F)(F)F)c2)cn1 [Nilotinib] + Cc1nc(Nc2ncc(C(=O)Nc3c(C)cccc3Cl)s2)cc(N2CCN(CCO)CC2)n1 [Dasatinib] (partner 0.075 µM) : 0.357

* * *

# System: COR-L 105
# assayComment: relative viability (nuclei count vs DMSO), 5 days (fraction); higher = more cells survive
# experimentalContext: first compound 2 µM
measure: relative viability
Quick one: just the number, no unit, thanks!

Worked cases, relative viability given:
| compound | measure | observedMeasurement |
| --- | --- | --- |
| Cc1csc(=NC2CCCCC2)n1/N=C/c1ccc(O)c(O)c1O [MIM1] + CC1(C)CCC(c2ccc(Cl)cc2)=C(CN2CCN(c3ccc(C(=O)NS(=O)(=O)c4ccc(N[C@H](CCN5CCOCC5)CSc5ccccc5)c(S(=O)(=O)C(F)(F)F)c4)cc3)CC2)C1 [Navitoclax] (partner 0.5 µM) | relative viability | 0.732 |
| Cc1csc(=NC2CCCCC2)n1/N=C/c1ccc(O)c(O)c1O [MIM1] + CS(=O)(=O)N1CCN(Cc2cc3nc(-c4cccc5[nH]ncc45)nc(N4CCOCC4)c3s2)CC1 [Pictilisib] (partner 1 µM) | relative viability | 0.344 |
| Cc1csc(=NC2CCCCC2)n1/N=C/c1ccc(O)c(O)c1O [MIM1] + N=C(N)NC(=N)NCCc1ccccc1 [Phenformin] (partner 250 µM) | relative viability | 0.404 |

Measured relative viability, CN1CCN(CCOc2cc(OC3CCOCC3)c3c(Nc4c(Cl)ccc5c4OCO5)ncnc3c2)CC1 [Saracatinib] + CC(C)C[C@H](NC(=O)[C@H](Cc1ccccc1)NC(=O)c1cnccn1)B(O)O [Bortezomib] (partner 0.002 µM) : 0.432

Measured relative viability, CN1CCN(CCOc2cc(OC3CCOCC3)c3c(Nc4c(Cl)ccc5c4OCO5)ncnc3c2)CC1 [Saracatinib] + N=C(N)NC(=N)NCCc1ccccc1 [Phenformin] (partner 250 µM) : 0.256

Reference for the values: the supplement of paper PMC10307832
